- protocol-description: Inhibition of NS5B polymerase E1202G/T1280I/S2197P mutant in HCV genotype 1a infected in human HuH7 replicon cells after 72 hrs in presence of 10% FBS by luciferase-based reporter assay
result-type: pEC50
pEC50 here is simply -log10 of the concentration when that concentration is written in mol/L.

Answered cases to consult:
| smiles-entry | readout-number |
| --- | --- |
| CNC(=O)c1c(-c2ccc(F)cc2)oc2cc(N(C)S(C)(=O)=O)c(-c3ccc4ccn5c6cccc(F)c6cc5c4n3)cc12 | 8.54 |
| CNC(=O)c1c(-c2ccc(F)cc2)oc2cc(N(C)S(C)(=O)=O)c(-c3ccc4ncn5c6cccc(F)c6cc5c4n3)cc12 | 8.70 |
| CNC(=O)c1c(-c2ccc(F)cc2)oc2cc(N(C)S(C)(=O)=O)c(-c3ccc4c(n3)-c3cc5c(F)cccc5n3CN4)cc12 | 8.28 |

Let's switch to this compound now.
Incoming: Need pEC50, item `CNC(=O)c1c(-c2ccc(F)cc2)oc2cc(N(C)S(C)(=O)=O)c(-c3ccc4c(n3)-c3cc5c(F)cccc5n3CC4)cc12`
Outgoing: 8.52

* * *

- protocol-description: Inhibition of NS5B polymerase E1202G/T1280I/S2197P mutant in HCV genotype 2a infected in human HuH7 replicon cells after 72 hrs in presence of 10% FBS by luciferase-based reporter assay
result-type: EC50 (nM)
Give the value in nM but do not write nM after it.

Answered cases to consult:
| molecule | unit-symbol | readout-number |
| --- | --- | --- |
| CNC(=O)c1c(-c2ccc(F)cc2)oc2cc(N(C)S(C)(=O)=O)c(-c3ccc4c(n3)-c3cc5c(F)cccc5n3CN4)cc12 | nM | 6.4 |
| CNC(=O)c1c(-c2ccc(F)cc2)oc2cc(N(C)S(C)(=O)=O)c(-c3ccc4ccn5c6cccc(F)c6cc5c4n3)cc12 [US9243002, 82] | nM | 6.3 |
| CNC(=O)c1c(-c2ccc(F)cc2)oc2cc(N(C)S(C)(=O)=O)c(-c3ccc4ncn5c6cccc(F)c6cc5c4n3)cc12 | nM | 3.3 |

Let's switch to this molecule now.
Incoming: Need EC50, item CNC(=O)c1c(-c2ccc(F)cc2)oc2cc(N(C)S(C)(=O)=O)c(-c3ccc4c(n3)-c3cc5c(F)cccc5n3CC4)cc12 [US9243002, 85]
Outgoing: 5.7

* * *

- protocol-description: Inhibition of NS5B polymerase in HCV genotype 3A infected in HuH7 cells after 40 hrs by Taqman probe based RT-PCR analysis
result-type: pEC50
pEC50 here is simply -log10 of the concentration when that concentration is written in mol/L.

| smiles-entry | pEC50 |
| --- | --- |
| CNC(=O)c1c(-c2ccc(F)cc2)oc2cc(N(C)S(C)(=O)=O)c(-c3ccc4c(n3)-c3cc5c(F)cccc5n3CC4)cc12 | 8.96 |
| CNC(=O)c1c(-c2ccc(F)cc2)oc2cc(N(C)S(C)(=O)=O)c(-c3ccc4ccn5c6cccc(F)c6cc5c4n3)cc12 | 8.92 |
| CNC(=O)c1c(-c2ccc(F)cc2)oc2cc(N(C)S(C)(=O)=O)c(-c3ccc4ncn5c6cccc(F)c6cc5c4n3)cc12 | 9.00 |
| CNC(=O)c1c(-c2ccc(F)cc2)oc2cc(N(C)S(C)(=O)=O)c(-c3cc4n(c(=O)c3)CCn3c-4cc4c(F)cccc43)cc12 | 9.21 |
| CNC(=O)c1c(-c2ccc(F)cc2)oc2cc(N(C)S(C)(=O)=O)c(-c3ccc4c(n3)-c3cc5c(F)cccc5n3CCC4)cc12 | 8.92 |

Incoming: Need pEC50, item `CNC(=O)c1c(-c2ccc(F)cc2)oc2cc(N(C)S(C)(=O)=O)c(-c3ccc4c(n3)-c3cc5c(F)cccc5n3CN4)cc12`
Outgoing: 9.00

Incoming: Need pEC50, item `CNC(=O)c1c(-c2ccc(F)cc2)oc2cc(N(C)S(C)(=O)=O)c(-c3ccc4c(n3)-c3cc5c(F)cccc5n3C4)cc12`
Outgoing: 8.52

Incoming: Need pEC50, item `CNC(=O)c1c(-c2ccc(F)cc2)oc2cc(N(C)S(C)(=O)=O)c(-c3ccc4c(n3)-c3cc5c(F)cccc5n3CCCC4)cc12`
Outgoing: 8.72
